Taken from patent US12104181B2.

Provide the reported Percent Infected R1 of each item.
Tested on: coxsackievirus B3 (CVB3-GFP)
Assay type: cell-based
EXPERIMENTAL CONDITIONS: HeLa cells, GFP-positive cells within RFP-positive gate, replicate R1
Express the reported value numerically, then name its unit.

// below: answered molecules
| MOLECULE | Percent Infected R1 |
| --- | --- |
| TRIM61: human RING type E3 ligase expressed from lentiviral vector (protein, UniProt Q5EBN2 1-209, looked up) Putative tripartite …: MEFVTALADLRAEASCPICLDYLKDPVTISCGHNFCLSCIIMSWKDLHDSFPCPFCHFCCPERKFISNPQLGSLTEIAKQLQIRSKKRKRQEEKHVCKKHNQVLTFFCQKDLELLCPRCSLSTDHQHHCVWPIKKAASYHRKKLEEYNAPWKERVELIEKVITMQTRKSLELKKKMESPSVTRLECSCTISAHFNLRLPGSSDSSASGS | 65.8% |
| RNF141: human RING type E3 ligase expressed from lentiviral vector (protein, UniProt Q8WVD5 2-230, looked up) RING finger protein 141: GQQISDQTQLVINKLPEKVAKHVTLVRESGSLTYEEFLGRVAELNDVTAKVASGQEKHLLFEVQPGSDSSAFWKVVVRVVCTKINKSSGIVEASRIMNLYQFIQLYKDITSQAAGVLAQSSTSEEPDENSSSVTSCQASLWMGRVKQLTDEEECCICMDGRADLILPCAHSFCQKCIDKWSDRHRNCPICRLQMTGANESWVVSDAPTEDDMANYILNMADEAGQPHRP | 87.2% |

Turning now to a further record.
Data request: Any idea what its Percent Infected R1 is? The molecule is MARCH5: human RING type E3 ligase expressed from lentiviral vector (protein, UniProt Q9NX47 1-278, looked up) E3 ubiquitin-protein ligase …: MPDQALQQMLDRSCWVCFATDEDDRTAEWVRPCRCRGSTKWVHQACLQRWVDEKQRGNSTARVACPQCNAEYLIVFPKLGPVVYVLDLADRLISKACPFAAAGIMVGSIYWTAVTYGAVTVMQVVGHKEGLDVMERADPLFLLIGLPTIPVMLILGKMIRWEDYVLRLWRKYSNKLQILNSIFPGIGCPVPRIPAEANPLADHVSATRILCGALVFPTIATIVGKLMFSSVNSNLQRTILGGIAFVAIKGAFKVYFKQQQYLRQAHRKILNYPEQEEA
Data returned: 91.5%
